B1: PPP2R2C (parent)
chain: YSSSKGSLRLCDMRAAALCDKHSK

variants of: B1; assay: protein stability index of a GFP-peptide fusion (GPS, HEK-293T) (PSI 1-6); higher = more stable; details: c terminus: a fixed tail appended;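 also: lentivirally expressed fusions sorted by FACS into six bins by GFP to DsRed ratio, PSI derived from sequencing read proportions per bin multiplied by bin number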
Lab note: compare protein stability index against 2. Equal or greater, write criterion met. Smaller, write criterion not met.

Task: Does the variant K24A have recorded protein stability index that is 2 or more?
Output: criterion not met

Task: Here is the next variant: C19S
Output: criterion not met

Task: Here is the next variant: S4Q
Output: criterion met

Task: Here is the next variant: A16M
Output: criterion not met

Task: Here is the next variant: H22F
Output: criterion not met

Task: Here is the next variant: D20T
Output: criterion met

Task: Here is the next variant: L10H
Output: criterion met

Task: Here is the next variant: K24C
Output: criterion not met

Task: Here is the next variant: K5Q
Output: criterion met

Task: Here is the next variant: K21Q
Output: criterion not met

Task: Here is the next variant: C11G
Output: criterion met

Task: Here is the next variant: H22L
Output: criterion not met

Task: Here is the next variant: K5R
Output: criterion not met

Task: Here is the next variant: R9H
Output: criterion met
